Form field: GI50 (one value per entry).
System: KM12
Assay info: NCI tumour cell line growth inhibition, 48 h
Where a name gives a salt, the structure may show the parent alone. Active and inactive are the calls of the source. No stated cut-off is given here; in the data, active = GI50 up to about 1.1 µM and inactive = higher.

Solved cases below.
# Molecule, System tested, GI50
records = [
    ("CC(=O)OC1COC(Nc2ccc(C(C)=O)cc2)C(OC(C)=O)C1OC(C)=O (stereo not given)", "KM12", "> 100 µM (inactive)"),
    ("CN1CCC(CN2c3ccccc3Sc3ccccc32)C1 (stereo not given) [METHDILAZINE HYDROCHLORIDE]", "KM12", "17.9 µM (inactive)"),
    ("O=c1c2ccccc2nc(-c2ccccc2)n1NCC1(O)OCC(O)C(O)C1O (stereo not given)", "KM12", "> 100 µM (inactive)"),
    ("CCOC(=O)NC(Nc1ncn(C(NC(=O)OCC)(C(F)(F)F)C(F)(F)F)n1)(C(F)(F)F)C(F)(F)F", "KM12", "> 100 µM (inactive)"),
]

# evaluate next
Task item: Reported GI50 for `CCCCCCCC[N+](C)(C)Cc1ccc(C[N+](C)(C)CCCCCCCC)cc1` : what is it?
Reply: 11.7 µM (inactive)

###

Quick list: GI50 per entry.
Tested on: SF-268
Assay info: NCI tumour cell line growth inhibition, 48 h
Active and inactive are the calls of the source. Cut-off read from the data, not from the text of the source: active = GI50 up to about 1.1 µM and inactive = higher.

# Compound, Quantity name, Endpoint result
records = [
    ("CCOC(=O)C1=C(OC(OCC)C(CC)[Se]c2ccccc2)CCCC1 (centres undefined)", "GI50", "19 µM (inactive)"),
    ("O=C(CSCC(=O)N/N=C/c1cccc(O)c1)N/N=C/c1cccc(O)c1", "GI50", "> 100 µM (inactive)"),
    ("COC(=O)[C@@]12C(=O)C(C)C(=O)[C@]1(C)C(C)=C[C@H]1[C@]3(C=O)CC[C@H](OC(C)=O)C(C)(C)[C@H]3CC[C@@]12C (some centres undefined)", "GI50", "> 100 µM (inactive)"),
]

Now look at this one.
Task item: Report GI50 for `C[C@H](NC1=CC(=O)C(N[C@@H](C)[C@H](O)c2ccccc2)=CC1=O)[C@H](O)c1ccccc1` please.
Reply: > 100 µM (inactive)

###

Tested on: NCI-H226
Assay info: NCI tumour cell line growth inhibition, 48 h
Calls of active or inactive are those of the source. No stated cut-off is given here; in the data, active = GI50 up to about 1.1 µM and inactive = higher.
Classes to choose from: true (1) (active), false (0) (inactive)

# Compound, Assigned class
data = [
    ("COC(=O)C1Cc2c(n(Cc3ccccc3)c3ccccc23)C(CCC(=O)O)N1C(C)C (stereo unspecified)", "false (0)"),
    ("CCO/C([O-])=C(/C=O)[n+]1c(C)n(C)c2ccccc21", "false (0)"),
    ("COc1ccc2c3c([nH]c2c1[N+](=O)[O-])C(C)N(Cc1ccc([N+](=O)[O-])cc1)CC3 (stereo unspecified)", "false (0)"),
    ("CCNc1ccc2c(c1)C(=O)N(OS(C)(=O)=O)C2=O", "false (0)"),
    ("COC[C@H]1C(=O)NCC(=O)N2N=CCC[C@H]2C(=O)N(O)[C@H](C)C(=O)O[C@@H](C(C)C)[C@H](NC(=O)[C@@](C)(O)[C@]2(O)CC[C@@H](CC(C)C)[C@H](C)O2)C(=O)N2NCCC[C@@H]2C(=O)N1O", "true (1)"),
]

Task item: Assay outcome for CC(O)CC(=O)CO[C@H]1[C@H](O)[C@@H](O)[C@@H](O)[C@@H]2NC(=O)c3c(cc4c(c3O)OCO4)[C@H]21 (stereo partly specified) : what was it?
Reply: true (1)

Task item: Entry `Oc1cc(-c2ccc3ccccc3c2)nc2ncccc12` please
Reply: false (0)

Task item: Same question, `Cc1ncc([N+](=O)[O-])n1CCNCCCCn1ccnc1[N+](=O)[O-]` this time
Reply: false (0)

Task item: Next record, please: `CN(C)CCC(=O)[C@@]1(O)CC[C@H]2[C@@H]3CC=C4C[C@@H](O)CC[C@]4(C)[C@H]3CC[C@@]21C`
Reply: false (0)

Task item: Can you check `CCOC(=O)N1[C@@H]2CCC[C@@H]2C(=O)[C@@H]2CCC[C@@H]21` next?
Reply: false (0)

Origin of values: ChEMBL document CHEMBL1201862
